# target-of-assay: myeloperoxidase (Homo sapiens)
# measurement-notes: MPO Peroxidation Assay (Amplex Red Assay)
# Format: biochemical
# protocol-conditions: potency range class, read-out: Amplex Red Assay IC50 value
In this section we review reported IC50 values for a set of compounds.

# count of solved cases: 4
Checklist item: IC50 tested on myeloperoxidase (Homo sapiens), entry Cc1cccc(C)c1CNCCC(c1ccccc1)c1cc(N)nc2[nH]nnc12 (stereo not shown) , value?
101 to 999 nM

Checklist item: IC50 tested on myeloperoxidase (Homo sapiens), entry Nc1cc(C(CCNC23CCC(c4ccccc4)(CC2)C(O)C3)c2ccccc2)c2nn[nH]c2n1 (stereo not shown) , value?
1 to 100 nM

Checklist item: IC50 tested on myeloperoxidase (Homo sapiens), entry Nc1cc(C(CCC(=O)Cc2ccccc2)c2ccccc2)c2nn[nH]c2n1 (stereo not shown) , value?
1 to 100 nM

Checklist item: IC50 tested on myeloperoxidase (Homo sapiens), entry Nc1cc(C(CCNC2CC(c3ccccc3)C2)c2ccccc2)c2nn[nH]c2n1 (single isomer, unassigned) [Example 80] , value?
101 to 999 nM

Continuing:
Checklist item: IC50 tested on myeloperoxidase (Homo sapiens), entry COc1cccc(C(CCN[C@H]2CC[C@H](c3ccccc3)CC2)c2cc(N)nc3[nH]nnc23)c1 (stereo partly shown) , value?
101 to 999 nM

Checklist item: IC50 tested on myeloperoxidase (Homo sapiens), entry Nc1cc([C@H](Cc2nc3cccc(-c4ccccc4)c3[nH]2)c2ccccc2)c2nn[nH]c2n1 , value?
101 to 999 nM

Checklist item: IC50 tested on myeloperoxidase (Homo sapiens), entry Nc1cc(C(CCNCc2ccnc(C(F)(F)F)c2)c2ccccc2)c2nn[nH]c2n1 (stereo not shown) , value?
101 to 999 nM

Checklist item: IC50 tested on myeloperoxidase (Homo sapiens), entry Nc1cc(C(CCNC(Cc2ccccc2)c2ccccc2)c2ccccc2)c2nn[nH]c2n1 (stereo not shown) [Example 48] , value?
101 to 999 nM

Checklist item: IC50 tested on myeloperoxidase (Homo sapiens), entry N#Cc1ccc(-c2ccc3nc(C[C@H](c4ccccc4)c4cc(N)nc5[nH]nnc45)[nH]c3c2)cc1 , value?
1000 to 10000 nM

* * *

# target-of-assay: myeloperoxidase (Homo sapiens, UniProt P05164)
# Sequence (P05164 49-745): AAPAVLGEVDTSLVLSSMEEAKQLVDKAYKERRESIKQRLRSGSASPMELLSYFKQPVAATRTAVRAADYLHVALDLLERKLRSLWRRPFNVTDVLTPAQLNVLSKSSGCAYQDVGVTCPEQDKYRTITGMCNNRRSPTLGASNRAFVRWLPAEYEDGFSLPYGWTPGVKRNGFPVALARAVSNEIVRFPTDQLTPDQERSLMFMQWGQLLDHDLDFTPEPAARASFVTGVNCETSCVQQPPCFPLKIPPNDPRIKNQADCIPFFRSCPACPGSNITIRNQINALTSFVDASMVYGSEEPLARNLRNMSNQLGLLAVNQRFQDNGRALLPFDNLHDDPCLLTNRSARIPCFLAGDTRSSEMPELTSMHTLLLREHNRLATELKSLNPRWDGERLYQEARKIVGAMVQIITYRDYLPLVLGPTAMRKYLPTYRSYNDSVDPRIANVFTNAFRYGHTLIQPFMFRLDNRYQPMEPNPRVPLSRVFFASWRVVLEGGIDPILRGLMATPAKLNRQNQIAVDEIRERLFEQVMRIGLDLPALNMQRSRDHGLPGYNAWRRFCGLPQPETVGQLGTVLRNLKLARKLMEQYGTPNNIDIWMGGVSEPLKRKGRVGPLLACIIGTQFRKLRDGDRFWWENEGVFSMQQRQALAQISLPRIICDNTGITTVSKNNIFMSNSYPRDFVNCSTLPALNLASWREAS
# measurement-notes: MPO Chlorination Assay (APF Assay)
# Type: biochemical
# protocol-conditions: potency range class, read-out: APF Assay IC50 value
pIC50: −log10 of the molar value.
measured-attribute: pIC50

Checklist item: pIC50 tested on myeloperoxidase (Homo sapiens, UniProt P05164), entry Nc1cc([C@H](CCN(CC(F)F)C23CCC(c4ccccc4)(CC2)CC3)c2ccccc2)c2nn[nH]c2n1 [Example 197] , value?
7.00 to 9.00

Checklist item: pIC50 tested on myeloperoxidase (Homo sapiens, UniProt P05164), entry CC1(C)C[C@H](NCCC(c2ccccc2)c2cc(N)nc3[nH]nnc23)c2ccccc21 (stereo partly shown) [Example 87] , value?
7.00 to 9.00

Checklist item: pIC50 tested on myeloperoxidase (Homo sapiens, UniProt P05164), entry CN(C)C(=O)c1cccc(CNCCC(c2ccccc2)c2cc(N)nc3[nH]nnc23)c1 (stereo not shown) [Example 72] , value?
6.00 to 7.00

For the next question, use this compound.
Checklist item: pIC50 tested on myeloperoxidase (Homo sapiens, UniProt P05164), entry Nc1cc(C(CCN[C@H]2CC[C@@H](c3ccc(Cl)cc3)CC2)c2ccccc2)c2nn[nH]c2n1 (stereo partly shown) [Example 107] , value?
7.00 to 9.00

Cited source for all entries: patent US11008317B2
